Entries and their measured melting point follow.

The cases that follow already have their melting point on record.
Smiles Data | melting point
Cc1nc2cccc(OCC(C)(C)NC(=O)c3ccncc3)c2c(N)c1C(=O)O | 195 to 198 °C
Cc1nc2cccc(OCC(C)(C)NC(=O)c3cccc(O)c3)c2c(N)c1C(=O)O | 195 to 198 °C
CCC(CC)COc1cccc2nc(C)c(C(=O)O)c(N)c12 | 145 to 151 °C
Cc1nc2cccc(OCC(C)C)c2c(N)c1C(=O)O | 203.7 °C

# ---- query molecule ----
[in] State the recorded melting point for this entry: `Cc1nc2cccc(OC3CCCCC3)c2c(N)c1C(=O)O`
[out] 220 to 221.5 °C
